Reference source for all entries: patent US20240116985A1

# test_target: beta-catenin/TCF4 engagement (Homo sapiens)
# Construct: expressed in transfected cells; host or cells: HEK293
# Sequence (P35222 whole entry): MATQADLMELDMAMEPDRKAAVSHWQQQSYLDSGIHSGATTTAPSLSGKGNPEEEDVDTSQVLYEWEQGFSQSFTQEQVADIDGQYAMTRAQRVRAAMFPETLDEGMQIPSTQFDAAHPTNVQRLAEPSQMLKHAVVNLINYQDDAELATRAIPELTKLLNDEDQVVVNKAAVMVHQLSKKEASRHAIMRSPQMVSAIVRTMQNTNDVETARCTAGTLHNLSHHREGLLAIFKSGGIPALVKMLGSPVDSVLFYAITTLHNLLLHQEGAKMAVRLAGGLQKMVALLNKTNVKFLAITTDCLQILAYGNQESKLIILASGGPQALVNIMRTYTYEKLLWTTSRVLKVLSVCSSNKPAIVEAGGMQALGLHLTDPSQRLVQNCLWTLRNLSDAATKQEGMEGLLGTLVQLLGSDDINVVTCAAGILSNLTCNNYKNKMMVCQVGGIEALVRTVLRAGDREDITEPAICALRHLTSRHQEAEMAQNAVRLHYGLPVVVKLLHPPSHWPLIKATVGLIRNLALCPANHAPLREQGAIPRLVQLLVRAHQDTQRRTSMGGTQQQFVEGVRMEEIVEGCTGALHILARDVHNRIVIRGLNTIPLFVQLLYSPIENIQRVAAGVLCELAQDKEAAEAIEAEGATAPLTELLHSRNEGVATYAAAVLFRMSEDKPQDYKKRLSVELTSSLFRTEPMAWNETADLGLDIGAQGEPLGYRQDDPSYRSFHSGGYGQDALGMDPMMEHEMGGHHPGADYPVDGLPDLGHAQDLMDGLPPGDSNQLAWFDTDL
# assay_explanation: Nano-BRET target engagement assay (B-cat-Halo & TCF4-Luc in HEK293 cells)
# Format: cell-based
# test_parameters: absolute IC50; read-out: NanoBRET Abs IC50
measured_metric: IC50 (µM)
Write the value in µM as a bare number.

Exercise: Report IC50 for CC(=O)NCCCC[C@H](NC(=O)[C@H](Cc1csc2ccccc12)NC(=O)[C@H](Cc1ccsc1)NC(=O)[C@]12CCN(C1)C(=O)OCCCC=CCCCC1(CCCC=CC[C@]3(CCCN3C(C)=O)C(=O)N[C@@H](CC(=O)O)C(=O)N[C@@H](CC(C)(C)C)C(=O)N1)C(=O)N[C@@H](CC(=O)O)C(=O)N[C@@H](CN(CC(=O)O)CC(F)(F)F)C(=O)N[C@@H](C)C(=O)N[C@@H](C)C(=O)N[C@@H](Cc1ccccc1)C(=O)N[C@@H](CC(C)C)C(=O)N2)C(N)=O (stereo partly drawn) please.
Key: 6.2

Now, please, on to the next compound.
Exercise: Report IC50 for CC(=O)N1CCC[C@]12CC=CCCCC1(CCCC=CCCCOC(=O)N3CC[C@@](C(=O)N[C@@H](Cc4ccsc4)C(=O)N[C@@H](Cc4csc5ccccc45)C(=O)N[C@@H](CCC(N)=O)C(N)=O)(C3)NC(=O)[C@H](CC(N)=O)NC(=O)[C@H](Cc3ccccc3)NC(=O)[C@H](C)NC(=O)[C@H](C)NC(=O)[C@H](CCC(=O)O)NC(=O)[C@H](CC(=O)O)NC1=O)NC(=O)[C@H](CC(C)(C)C)NC(=O)[C@H](CC(=O)O)NC2=O (stereo partly drawn) [I-690] please.
Key: 17.8

###

# Tested on: TCF/LEF luciferase Reporter in DLD1 cells
# assay_explanation: TCF reporter assay (DLD1 TCF/LEF luciferase reporter, Bright-Glo)
# Format: cell-based
# test_parameters: read-out: DLD1 4% Abs IC50; DLD1 reporter assay, 4%, absolute IC50
measured_metric: pIC50
// pIC50: -log10(molar conc.)

Exercise: Report pIC50 for CC(=O)N1CCC[C@]12CC=CCCCC1(CCCC=CCCCOC(=O)N3CC[C@@](C(=O)N[C@@H](Cc4ccsc4)C(=O)N[C@@H](Cc4csc5ccccc45)C(=O)N[C@@H](CCC(N)=O)C(N)=O)(C3)NC(=O)[C@H](CC(C)C)NC(=O)[C@H](Cc3ccccc3)NC(=O)[C@H](C)NC(=O)[C@H](C)NC(=O)[C@H](CN(CC(=O)O)Cc3c(F)c(F)c(F)c(F)c3F)NC(=O)[C@H](CC(=O)O)NC1=O)NC(=O)[C@H](CC(C)(C)C)NC(=O)[C@H](CC(=O)O)NC2=O (some centres unmarked) please.
Key: 5.59

Exercise: Report pIC50 for CC(=O)N1CCC[C@]12CC=CCCCC1(CCCC=CCCCOC(=O)N3CC[C@@](C(=O)N[C@@H](Cc4ccsc4)C(=O)N[C@@H](Cc4csc5ccccc45)C(=O)N[C@@H](C)C(N)=O)(C3)NC(=O)[C@H](CC(C)C)NC(=O)[C@H](Cc3ccccc3)NC(=O)[C@H](C)NC(=O)[C@H](C)NC(=O)[C@H](CN(CC(=O)O)CC(F)(F)F)NC(=O)[C@H](CC(=O)O)NC1=O)NC(=O)[C@H](CC(C)(C)C)NC(=O)[C@H](CC(=O)O)NC2=O (some centres unmarked) please.
Key: 5.72
